Target: KRas G12R (Homo sapiens, UniProt P01116, G12R);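 also: TR-FRET displacement assay of compound binding to KRas, read after one hour at room temperature, potency from a four-parameter fit of percent-of-control values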
Sequence (P01116 1-169 isoform P01116-2 G12R): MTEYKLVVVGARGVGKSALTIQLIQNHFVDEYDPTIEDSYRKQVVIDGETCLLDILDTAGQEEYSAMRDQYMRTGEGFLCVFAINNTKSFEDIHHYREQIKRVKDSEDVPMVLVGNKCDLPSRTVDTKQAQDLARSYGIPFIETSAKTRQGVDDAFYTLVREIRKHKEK
Experiment: biochemical
METRIC: pIC50
Would you please state pIC50, meaning minus log10 of the concentration in mol/L, as a bare number?

The examples below pair each entry with its known result.
CCc1c(F)ccc2cc(O)cc(-c3ncc4c(N5CCCC6(C5)CS(=O)(=O)C6)nc(OC[C@@]56CCCN5C[C@H](F)C6)nc4c3F)c12 [Example 481]	8.15
NS(=O)(=O)CC1CCCN(c2nc(OCC34CCCN3CCC4)nc3c(F)c(-c4cccc5cccc(C(F)(F)F)c45)ncc23)C1 (stereo not drawn) [Example 465]	5.00
CC1(O)CCCN(c2nc(OCC34CCCN3CCC4)nc3c(F)c(-c4cccc5cccc(C6CC6)c45)ncc23)C1 (stereo not drawn) [Example 440]	5.76

// query # query: pIC50 of entry CCc1c(F)ccc2cc(O)cc(-c3ncc4c(N5CCC[C@]6(C5)C[C@](C)(O)C6)nc(OCC56CCCN5CCC6)nc4c3F)c12 [Example 328]
// result 7.74

Taken from patent US12398154B2.
